Molecular target: PRMT5/MEP50 complex (Homo sapiens, UniProt O14744)
Sequence (O14744 whole entry, the tested form may be a part): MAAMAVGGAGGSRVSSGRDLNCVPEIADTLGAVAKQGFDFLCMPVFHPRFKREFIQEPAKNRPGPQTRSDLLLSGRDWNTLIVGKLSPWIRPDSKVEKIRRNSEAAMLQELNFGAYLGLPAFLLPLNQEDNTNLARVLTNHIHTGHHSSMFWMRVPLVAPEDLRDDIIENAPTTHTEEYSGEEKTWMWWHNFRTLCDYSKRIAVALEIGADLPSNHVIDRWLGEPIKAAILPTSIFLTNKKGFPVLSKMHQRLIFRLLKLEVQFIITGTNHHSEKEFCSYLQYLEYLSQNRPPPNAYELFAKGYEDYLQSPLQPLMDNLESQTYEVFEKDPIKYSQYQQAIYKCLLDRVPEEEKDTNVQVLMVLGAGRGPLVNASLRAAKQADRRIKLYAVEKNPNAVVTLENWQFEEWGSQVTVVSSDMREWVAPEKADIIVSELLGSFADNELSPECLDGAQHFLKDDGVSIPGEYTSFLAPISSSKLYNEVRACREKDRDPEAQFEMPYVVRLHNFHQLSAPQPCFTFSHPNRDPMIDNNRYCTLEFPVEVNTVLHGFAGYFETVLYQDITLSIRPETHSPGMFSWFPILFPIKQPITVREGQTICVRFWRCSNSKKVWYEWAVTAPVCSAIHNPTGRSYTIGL
Sequence (Q9BQA1 whole entry, further chain, the tested form may be a part): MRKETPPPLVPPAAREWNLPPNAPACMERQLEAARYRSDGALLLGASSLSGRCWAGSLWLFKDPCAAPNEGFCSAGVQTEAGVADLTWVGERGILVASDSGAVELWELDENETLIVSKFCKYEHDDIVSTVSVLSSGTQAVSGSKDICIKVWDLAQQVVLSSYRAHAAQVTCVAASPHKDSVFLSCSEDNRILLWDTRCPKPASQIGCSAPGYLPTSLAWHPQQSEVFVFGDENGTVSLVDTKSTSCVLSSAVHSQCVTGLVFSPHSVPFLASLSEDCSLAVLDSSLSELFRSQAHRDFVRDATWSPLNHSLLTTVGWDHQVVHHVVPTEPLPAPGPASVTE
Assay: Inhibition of recombinant human fetal brain FLAG-tagged PRMT5/full length human testis 6His-tagged MEP50 expressed in baculovirus infected insect Sf9 cells using human histone H4 (1 to 15 residues) as substrate preincubated for 30 mins followed by [3H]-SAM addition
Readout Kind: IC50

Answered cases to consult:
[[record]]
molecule = "Cn1cnc(C(=O)Nc2cccc(OCC(O)CN3CCc4ccccc4C3)c2)c1 (centres undefined)"
reported_value = "1000 to 10000 nM"

[[record]]
molecule = "CN(C)CCOc1cccc(C(=O)NCC(O)CN2CCc3ccccc3C2)c1 (centres undefined)"
reported_value = "< 100 nM"

[[record]]
molecule = "Cc1ccc(OCC(=O)NCC(O)CN2CCc3ccccc3C2)cc1 (centres undefined)"
reported_value = "101 to 1000 nM"


# ---- query molecule ----
query: Enter reported IC50 observed with PRMT5/MEP50 complex (Homo sapiens, UniProt O14744) for O=C1Cc2ccccc2N1CC(O)CN1CCc2ccccc2C1 (centres undefined)
result: 101 to 1000 nM
